Tested on: BPH-1 (Non-Cancerous)
Assay: combination Emax (second highest fraction inhibited in the dose matrix, 72 h); higher = more inhibition; extreme values may be limits of the assay
What combination Emax was measured for each of the following?
Give bare numbers.

Examples with their reported combination Emax follow.
INSERT INTO measurements (compound, value_type, reported_measurement) VALUES
  ('CC(=O)c1c(C)c2cnc(Nc3ccc(N4CCNCC4)cn3)nc2n(C2CCCC2)c1=O [Palbociclib] + CN(CC[C@H](CSC1=CC=CC=C1)NC2=C(C=C(C=C2)S(=O)(=O)NC(=O)C3=CC=C(C=C3)N4CCC(CC4)[C@H](C5=CC=CC=C5C6=CC=C(C=C6)Cl)O)S(=O)(=O)C(F)(F)F)CCO [AZD4320] (first compound max 10 µM, 7x7, partner max 1 µM)', 'combination Emax', 0.592),
  ('Cc1cc2ncnn2cc1Nc1ncc2c(n1)n(C1CCOCC1)c(=O)n2C [AZD7648] + CCN(CCO)CCCOc1ccc2c(Nc3cc(CC(=O)Nc4cccc(F)c4)[nH]n3)ncnc2c1 [AZD2811] (first compound max 10 µM, 7x7, partner max 1 µM)', 'combination Emax', 0.614),
  ('CC1(C)CCC(CN2CCN(c3ccc(C(=O)NS(=O)(=O)c4ccc(NCC5CCOCC5)c([N+](=O)[O-])c4)c(Oc4cnc5[nH]ccc5c4)c3)CC2)=C(c2ccc(Cl)cc2)C1 [Venetoclax] + Cn1cnc2c(F)c(Nc3ccc(Br)cc3Cl)c(C(=O)NOCCO)cc21 [Selumetinib] (first compound max 1 µM, 7x7, partner max 3 µM)', 'combination Emax', 0.572),
  ('NC1(C(=O)N[C@@H](CCO)c2ccc(Cl)cc2)CCN(c2ncnc3[nH]ccc23)CC1 [Capivasertib] + CCN(CCO)CCCOc1ccc2c(Nc3cc(CC(=O)Nc4cccc(F)c4)[nH]n3)ncnc2c1 [AZD2811] (first compound max 10 µM, 7x7, partner max 1 µM)', 'combination Emax', 0.587),
  ('CN(C)CCCOc1ccc(-c2ccc3ncc4c(c3c2)n(C2CCOCC2)c(=O)n4C)cn1 [AZD0156] + CCN(CCO)CCCOc1ccc2c(Nc3cc(CC(=O)Nc4cccc(F)c4)[nH]n3)ncnc2c1 [AZD2811] (first compound max 1 µM, 7x7, partner max 1 µM)', 'combination Emax', 0.459);

Please state combination Emax for every compound in the list that follows.
1. COc1nnc2ccc(N3CCC(c4ccc(OCCN5CCN(C)C(=O)[C@H]5C)cc4)CC3)nn12 [AZD5153] + Cc1c2c(nn1C)CSCc1cc(n(C)n1)CSc1cc(c3ccccc3c1)OCCCc1c(C(=O)O)n(C)c3c-2c(Cl)ccc13 [AZD5991] (first compound max 1 µM, 7x7, partner max 1 µM)
2. CCN(CCO)CCCOc1ccc2c(Nc3cc(CC(=O)Nc4cccc(F)c4)[nH]n3)ncnc2c1 [AZD2811] + C[C@@H]1COCCN1C2=NC(=NC(=C2)C3(CC3)[S@](=N)(=O)C)C4=C5C=CNC5=NC=C4 [AZD6738] (first compound max 1 µM, 7x7, partner max 10 µM)
3. CN(CCO)CC[C@H](CSc1ccccc1)Nc1ccc(S(=O)(=O)NC(=O)c2ccc(N3CCC([C@@H](O)c4ccccc4-c4ccc(Cl)cc4)CC3)cc2)cc1S(=O)(=O)C(F)(F)F [AZD4320] + Cn1cnc2c(F)c(Nc3ccc(Br)cc3Cl)c(C(=O)NOCCO)cc21 [Selumetinib] (first compound max 1 µM, 7x7, partner max 3 µM)

1. 0.86
2. 0.4
3. 0.784

Please state combination Emax for every compound in the list that follows.
1. Cc1c2c(nn1C)CSCc1cc(n(C)n1)CSc1cc(c3ccccc3c1)OCCCc1c(C(=O)O)n(C)c3c-2c(Cl)ccc13 [AZD5991] + CN(C)CCCOc1ccc(-c2ccc3ncc4c(c3c2)n(C2CCOCC2)c(=O)n4C)cn1 [AZD0156] (first compound max 1 µM, 7x7, partner max 1 µM)
2. CCc1c2c(nc3ccc(O)cc13)-c1cc3c(c(=O)n1C2)COC(=O)[C@]3(O)CC [SN-38] + CN(C)CCCOc1ccc(-c2ccc3ncc4c(c3c2)n(C2CCOCC2)c(=O)n4C)cn1 [AZD0156] (first compound max 0.3 µM, 7x7, partner max 1 µM)
3. CC(=O)c1c(C)c2cnc(Nc3ccc(N4CCNCC4)cn3)nc2n(C2CCCC2)c1=O [Palbociclib] + CC1(C)CCC(CN2CCN(c3ccc(C(=O)NS(=O)(=O)c4ccc(NCC5CCOCC5)c([N+](=O)[O-])c4)c(Oc4cnc5[nH]ccc5c4)c3)CC2)=C(c2ccc(Cl)cc2)C1 [Venetoclax] (first compound max 10 µM, 7x7, partner max 1 µM)
4. C=CCn1c(=O)c2cnc(Nc3ccc(N4CCN(C)CC4)cc3)nc2n1-c1cccc(C(C)(C)O)n1 [AZD1775] + C[C@@H]1COCCN1C2=NC(=NC(=C2)C3(CC3)[S@](=N)(=O)C)C4=C5C=CNC5=NC=C4 [AZD6738] (first compound max 1 µM, partner max 10 µM)
5. COc1cc2ncnc(Nc3ccc(F)c(Cl)c3)c2cc1OCCCN1CCOCC1 [Gefitinib] + CC(C)n1c(=O)n(C)c2cnc3cc(F)c(-c4ccc(OCCCN5CCCCC5)nc4)cc3c21 [AZD1390] (first compound max 10 µM, 7x7, partner max 0.3 µM)

[0.733, 0.94, 0.153, 0.588, 0.556]
